Target sequence: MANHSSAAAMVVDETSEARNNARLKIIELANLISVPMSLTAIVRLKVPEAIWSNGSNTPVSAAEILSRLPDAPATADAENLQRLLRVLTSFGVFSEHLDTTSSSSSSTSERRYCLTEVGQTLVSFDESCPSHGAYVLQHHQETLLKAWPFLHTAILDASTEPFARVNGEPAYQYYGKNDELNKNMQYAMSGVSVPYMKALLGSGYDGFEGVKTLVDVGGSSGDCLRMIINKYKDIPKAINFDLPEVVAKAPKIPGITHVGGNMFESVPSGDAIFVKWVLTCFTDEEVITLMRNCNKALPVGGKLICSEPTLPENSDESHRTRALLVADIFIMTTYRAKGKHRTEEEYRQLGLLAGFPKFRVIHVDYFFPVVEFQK
endpoint: IC50 (µM)
Give the value, in units of µM, as a plain number.

Task item: Give its IC50 value. Item: Nc1ncnc2c1ncn2[C@@H]1O[C@H](CSCC[C@H](N)C(=O)O)[C@@H](O)[C@H]1O
Reply: 40
